Hey, just so you know, these numbers are from ChEMBL document CHEMBL1153669.

# study system: Alpha-2B adrenergic receptor (Homo sapiens, UniProt P18089)
# Sequence (P18089 whole entry): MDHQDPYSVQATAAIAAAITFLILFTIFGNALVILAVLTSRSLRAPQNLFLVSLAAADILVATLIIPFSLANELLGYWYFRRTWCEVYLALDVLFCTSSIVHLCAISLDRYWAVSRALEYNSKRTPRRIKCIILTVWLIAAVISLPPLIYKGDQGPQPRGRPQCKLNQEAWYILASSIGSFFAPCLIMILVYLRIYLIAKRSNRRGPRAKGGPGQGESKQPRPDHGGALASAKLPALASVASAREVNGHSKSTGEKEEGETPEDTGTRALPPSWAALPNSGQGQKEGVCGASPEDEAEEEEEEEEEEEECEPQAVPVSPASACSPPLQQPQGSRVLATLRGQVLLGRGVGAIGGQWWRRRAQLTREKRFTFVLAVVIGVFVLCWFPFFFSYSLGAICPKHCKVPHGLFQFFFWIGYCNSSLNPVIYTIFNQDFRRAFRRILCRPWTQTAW
measure: Ki (nM)
Give a bare numeral; the unit nM is implied.

Task item: Which measured Ki belongs to COc1ccc(CCCN2CCC(CCC(=O)c3cc(Cl)c(N)c4c3OCCO4)CC2)cc1OC , tested on Alpha-2B adrenergic receptor (Homo sapiens, UniProt P18089)?
Reply: 2510

###

# study system: D(1A) dopamine receptor (Homo sapiens, UniProt P21728)
# Sequence (P21728 whole entry): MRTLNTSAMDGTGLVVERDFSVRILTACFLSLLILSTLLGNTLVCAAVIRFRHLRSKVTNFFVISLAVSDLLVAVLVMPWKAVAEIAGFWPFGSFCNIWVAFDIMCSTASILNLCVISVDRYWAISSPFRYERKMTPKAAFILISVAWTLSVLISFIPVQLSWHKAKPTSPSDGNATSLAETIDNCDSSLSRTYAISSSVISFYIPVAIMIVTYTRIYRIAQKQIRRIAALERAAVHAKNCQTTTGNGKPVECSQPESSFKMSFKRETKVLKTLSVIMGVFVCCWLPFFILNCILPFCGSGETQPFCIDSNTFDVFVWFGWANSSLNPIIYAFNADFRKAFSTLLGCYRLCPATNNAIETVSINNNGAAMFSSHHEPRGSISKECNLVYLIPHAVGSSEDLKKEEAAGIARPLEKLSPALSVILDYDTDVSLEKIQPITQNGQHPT
# method description: Compound was evaluated for binding affinity against Dopamine D1 receptor using radioligand binding assay
measure: Ki

Task item: I have this compound here, COc1ccc(CCCN2CCC(CCC(=O)c3cc(Cl)c(N)c4c3OCCO4)CC2)cc1OC , and I need its recorded Ki.
Reply: > 10 µM

###

# method description: Compound was tested for its half-life period at an intravenous dose of 3 ug/kg
# Assay type: ADME, organism-based, Sus scrofa
# applied conditions: pig, in vivo, 0.003 mg/kg
measure: half-life

Task item: Requested field: half-life. Item: COc1ccc(CCCN2CCC(CCC(=O)c3cc(Cl)c(N)c4c3OCCO4)CC2)cc1OC
Reply: > 6 h

###

# method description: Compound was tested for its half-life period at an intravenous dose of 30 ug/kg
# Type: ADME, organism-based, Sus scrofa
# applied conditions: pig, in vivo, 0.03 mg/kg
measure: half-life (h)
Give the value, in units of h, as a plain number.

Task item: // lookup half-life for COc1cc(COc2cc(N)c(Cl)cc2C(=O)CCC2CCN(CCNS(C)(=O)=O)CC2)cc(OC)c1
Reply: 5.25

###

# study system: UniProt Q62758
# Sequence (Q62758 whole entry): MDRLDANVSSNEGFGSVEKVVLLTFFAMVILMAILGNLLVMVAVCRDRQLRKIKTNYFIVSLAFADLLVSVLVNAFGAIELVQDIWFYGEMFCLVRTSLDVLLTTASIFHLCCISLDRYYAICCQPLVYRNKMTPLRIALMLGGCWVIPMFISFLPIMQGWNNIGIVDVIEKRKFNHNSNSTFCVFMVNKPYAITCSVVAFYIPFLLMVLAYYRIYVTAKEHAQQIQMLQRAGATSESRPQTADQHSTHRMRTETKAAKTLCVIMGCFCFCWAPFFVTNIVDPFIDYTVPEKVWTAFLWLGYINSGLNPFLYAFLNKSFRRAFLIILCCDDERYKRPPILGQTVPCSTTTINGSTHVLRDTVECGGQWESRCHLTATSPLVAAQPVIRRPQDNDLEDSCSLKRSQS
# method description: Antagonist activity against 5-HT4 receptor mediated relaxation of rat carbachol contracted esophageal muscularis mucosae
# Format: functional
Lab note: anything with pKb at or over 10 counts as t; the rest go in f.

Field: example entries. Status: answers known.
{"smiles data": "COc1cc(COc2cc(N)c(Cl)cc2C(=O)CCC2CCN(CCNS(C)(=O)=O)CC2)cc(OC)c1", "label": "f"}
{"smiles data": "Cn1cc(C(=O)OCC2CCN(CCNS(C)(=O)=O)CC2)c2ccccc21", "label": "f"}

Task item: Check if pKb >= 10 (inclusive). Item: COc1ccc(CCCN2CCC(CCC(=O)c3cc(Cl)c(N)c4c3OCCO4)CC2)cc1
Reply: t

Task item: Determine whether measured pKb meets or exceeds 10 for CCCCN1CCC(COC(=O)c2cc(Cl)c(N)c3c2OCCO3)CC1
Reply: t

Task item: Does the compound Nc1c(Cl)cc(C(=O)CCC2CCN(CCCc3ccccc3)CC2)c2c1OCCO2 have recorded pKb that is 10 or more?
Reply: f

###

# study system: Alpha-1A adrenergic receptor (Homo sapiens)
# Sequence (P35348 whole entry): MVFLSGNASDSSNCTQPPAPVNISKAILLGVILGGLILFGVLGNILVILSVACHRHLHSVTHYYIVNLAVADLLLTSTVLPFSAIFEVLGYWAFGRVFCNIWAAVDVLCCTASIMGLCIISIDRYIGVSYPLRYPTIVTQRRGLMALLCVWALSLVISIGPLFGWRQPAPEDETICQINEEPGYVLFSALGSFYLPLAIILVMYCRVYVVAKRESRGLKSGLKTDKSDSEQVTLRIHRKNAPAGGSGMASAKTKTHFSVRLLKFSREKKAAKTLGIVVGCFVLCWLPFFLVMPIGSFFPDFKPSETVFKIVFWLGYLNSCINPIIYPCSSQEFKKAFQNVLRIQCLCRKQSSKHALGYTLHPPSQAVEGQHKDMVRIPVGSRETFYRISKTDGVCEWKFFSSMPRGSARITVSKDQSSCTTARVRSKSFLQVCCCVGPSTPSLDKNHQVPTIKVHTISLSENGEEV
measure: Ki (nM)
Please give a number only; it is taken to be in nM.

Task item: // lookup Ki for COc1ccc(CCCN2CCC(CCC(=O)c3cc(Cl)c(N)c4c3OCCO4)CC2)cc1OC
Reply: 316

###

# study system: 5-hydroxytryptamine receptor 1A (Mus musculus, UniProt Q64264)
# Sequence (Q64264 whole entry): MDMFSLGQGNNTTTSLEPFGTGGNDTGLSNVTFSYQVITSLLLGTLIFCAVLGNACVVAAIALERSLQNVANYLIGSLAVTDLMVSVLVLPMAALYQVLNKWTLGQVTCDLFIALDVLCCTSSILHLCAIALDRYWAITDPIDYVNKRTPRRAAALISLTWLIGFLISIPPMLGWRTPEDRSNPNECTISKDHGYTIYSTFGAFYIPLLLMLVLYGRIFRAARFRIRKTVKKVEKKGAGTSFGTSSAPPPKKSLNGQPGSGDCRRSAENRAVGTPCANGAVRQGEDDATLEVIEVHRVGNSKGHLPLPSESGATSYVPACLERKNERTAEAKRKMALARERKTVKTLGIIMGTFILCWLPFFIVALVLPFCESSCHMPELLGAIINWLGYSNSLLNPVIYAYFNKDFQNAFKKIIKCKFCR
measure: pKi
The meaning of pKi here: minus log10 of the concentration in molar units.

Task item: Request body: readout pKi, system 5-hydroxytryptamine receptor 1A (Mus musculus, UniProt Q64264), query COc1ccc(CCCN2CCC(CCC(=O)c3cc(Cl)c(N)c4c3OCCO4)CC2)cc1OC . Return the value.
Reply: 6.00
